Consider the following variants and their measured percent of parent readings.
B1: TMEM59 peptide (residues 268–280), wild type [modified: long spacer (Tds) at the N-terminal end, used for immobilisation; long spacer (Tds) at the N-terminal end, used for immobilisation] [not stated] / GST-HA-ATG16L1(231–607) … (parent)
chain 1: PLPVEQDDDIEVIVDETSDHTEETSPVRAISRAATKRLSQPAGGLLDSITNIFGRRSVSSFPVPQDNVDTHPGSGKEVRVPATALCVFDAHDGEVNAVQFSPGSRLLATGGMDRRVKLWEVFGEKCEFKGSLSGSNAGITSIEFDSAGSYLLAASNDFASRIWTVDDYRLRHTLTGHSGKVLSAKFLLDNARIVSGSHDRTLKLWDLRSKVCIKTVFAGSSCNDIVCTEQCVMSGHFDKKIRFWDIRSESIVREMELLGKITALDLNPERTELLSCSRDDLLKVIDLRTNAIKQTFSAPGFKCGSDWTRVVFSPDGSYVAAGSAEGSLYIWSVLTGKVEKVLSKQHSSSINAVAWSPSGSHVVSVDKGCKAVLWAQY
chain 2: YVPSEKLSIYGDL

# Variants of: B1
# assay_method_text: peptide microarray
# stated_conditions: with GST-HA-ATG16L1(231–607) [human]; ligand 200, 50, 20 nM; parent: 100

>  <mutant_label>
chain 2 V2Q

>  <percent of parent, % WT>
12

$$$$
>  <mutant_label>
chain 2 Y1S

>  <percent of parent, % WT>
29

$$$$
>  <mutant_label>
chain 2 S4Q

>  <percent of parent, % WT>
88

$$$$
>  <mutant_label>
chain 2 K6V

>  <percent of parent, % WT>
50

$$$$
